# Tested target: T1, human claudin 6 (CLDN6) (human, UniProt P56747 1-220)
# T1 construct: also called human CLDN6; hCLDN6
# T1 sequence: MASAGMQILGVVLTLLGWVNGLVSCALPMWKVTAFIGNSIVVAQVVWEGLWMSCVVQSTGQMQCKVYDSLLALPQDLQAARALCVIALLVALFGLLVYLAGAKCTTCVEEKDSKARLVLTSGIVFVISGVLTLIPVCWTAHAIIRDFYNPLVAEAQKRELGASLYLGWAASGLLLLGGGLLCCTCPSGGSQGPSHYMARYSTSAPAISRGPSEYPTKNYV
# Experimental protocol: FACS, HEK293T/human CLDN6 cells
Endpoint label: EC50 (nM)
Just the number in nM, nothing appended.

[Q] What EC50 value was documented for this binder, BG87P-21 (antibody, V domains shown) VH: QVQLVQSGAEVKKPGASVKVSCKASGYSFTDYHINWVRQAPGQRLEWMGWIYPGSGYTKYNEKFKGRVTITRDTSASTAYMELSSLRSEDTAVYYCARSGIYHYVSSYYFDHWGKGTTVTVSS VL: DIQMTQSPSTLSASVGDRVTITCKASQDVGTAVAWYQQKPGKAPKLLIYWASTRHTGVPSRFSGSGSGTEFTLTISSLQPDDFATYYCQQYSSYTFGGGTKVEIK ?
[A] 3.07

[Q] // repeat for BG87P-22 (antibody, V domains shown) VH: QVQLVQSGAEVKKPGASVKVSCKASGYSFTDYHINWVRQAPGQRLEWMGWIYPGSGYTKYNEKFKGRVTITRDTSASTAYMELSSLRSEDTAVYFCARSGIYHYVSSYYFDHWGKGTTVTVSS VL: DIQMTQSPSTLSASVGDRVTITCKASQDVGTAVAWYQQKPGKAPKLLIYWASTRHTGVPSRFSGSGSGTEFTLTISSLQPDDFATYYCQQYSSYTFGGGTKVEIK and report
[A] 2.12

[Q] // repeat for BG87P-z0 (antibody, V domains shown) VH: QVQLVQSGAEVKKPGASVKVSCKASGYTFTDYHINWVRQAPGQRLEWMGWIYPGSGYTKYNEKFKVRVTITRDTSASTAYMELSSLRSEDTAVYYCARSGIYHYVSSYYFDHWGKGTTVTVSS VL: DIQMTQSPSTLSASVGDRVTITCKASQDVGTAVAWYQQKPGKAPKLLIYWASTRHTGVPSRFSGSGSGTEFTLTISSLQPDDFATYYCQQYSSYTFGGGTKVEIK and report
[A] 2.45

[Q] // repeat for BG87P-Bz3 (antibody, V domains shown) VH: QIQLVQSGAEVKKPGASVKVSCKASGYSFTDYHINWVRQAPGQRLEWMGWIYPGSGYTKYNEKFKVRVTITVDTSASTAYMELSSLRSEDTAVYFCARSGIYHYVSSYYFDHWGKGTTVTVSS VL: DIQMTQSPSTLSASVGDRVTITCKASQDVGTAVAWYQQKPGKSPKLLIYWASTRHTGVPSRFSGSGSGTEFTLTISSVQPDDFATYFCQQYSSYTFGGGTKVEIK and report
[A] 2.63

[Q] // repeat for BG87P-m7 (antibody, V domains shown, PTM removal variant of BG87P-Bz0; constant regions not restated (parent: human IgG1/kappa)) VH: QIQLVQSGAEVKKPGASVKVSCKASGYSFTDYHINWVRQAPGQRLEWMGWIYPGSGYTKYNEKFKGRVTLTVDTSASTAYMELSSLRSEDTAVYFCARSGIYHYVSSYYFDHWGKGTTVTVSS VL: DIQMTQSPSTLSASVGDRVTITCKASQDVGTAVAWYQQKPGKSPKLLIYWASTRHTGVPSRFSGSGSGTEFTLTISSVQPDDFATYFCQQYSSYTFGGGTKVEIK and report
[A] 2.43

[Q] // repeat for BG87P-Bz2 (antibody, V domains shown) VH: QIQLVQSGAEVKKPGASVKVSCKASGYTFTDYHINWVRQAPGQRLEWMGWIYPGSGYTKYNEKFKVRVTLTVDTSASTAYMELSSLRSEDTAVYFCARSGIYHYVSSYYFDHWGKGTTVTVSS VL: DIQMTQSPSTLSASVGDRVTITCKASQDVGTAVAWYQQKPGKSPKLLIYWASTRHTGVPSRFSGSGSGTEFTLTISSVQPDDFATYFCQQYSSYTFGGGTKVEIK and report
[A] 2.65
